Biological target: human androgen receptor (Homo sapiens, UniProt P10275)
Construct: expressed in transfected cells; host or cells: HEK293
Assay: Reporter assay of an androgen receptor responsive sequence (luciferase, transiently transfected HEK293 cells)
Type: cell-based
Conditions: 24 hours incubation, relative to activity of 100 nM DHT, read-out: AR transcriptive activity (pEC50) (converted)
reported.property: EC50 (nM)

Completed entries (count: 5):
CS(=O)(=O)NC(=O)c1nc(N(Cc2ccccc2)c2ccc(C#N)cc2)sc1Br [Compound 603]
31.6
CCc1oc(N(Cc2cccc(Cl)c2)c2ccc(C#N)cc2)nc1C(=O)NS(C)(=O)=O [Compound 631]
794
COCCCS(=O)(=O)NC(=O)c1nc(N(Cc2ccc(OC(F)F)c(F)c2)c2ccc(C#N)cc2)sc1C [Compound 526]
100
Cc1sc(N(CCc2cccc(Cl)c2)c2ccc(C#N)cc2)nc1C(=O)NS(C)(=O)=O [Compound 139]
1580
CS(=O)(=O)NC(=O)c1nc(N(Cc2ccc(Cl)cn2)c2ccc(C(F)(F)F)nc2)sc1Br [Compound 644]
501

1. Cc1sc(N(Cc2ccc(OC(F)(F)F)c(Cl)c2)c2ccc(C#N)cc2)nc1C(=O)NS(C)(=O)=O [Compound 421]
2. Cc1sc(N(CC[C@H]2CC[C@@H](O)C2)c2ccc(C#N)cc2)nc1C(=O)NS(C)(=O)=O (racemic) [Compound 436]
3. Cc1sc(N(Cc2ccc(F)cc2Cl)c2ccc(C#N)cc2)nc1C(=O)NS(C)(=O)=O [Compound 106]
Input line: Parameters: sort_field (EC50), sort_dir (desc). Reply with the labels, ordered as the question asks.
Output line: 2, 3, 1

I. Cc1sc(N(Cc2ccc3c(c2)C(=O)CCO3)c2ccc(C#N)cc2)nc1C(=O)NS(C)(=O)=O [Compound 138]
II. COC[C@@H](C)Oc1ccc(CN(c2ccc(C#N)cc2)c2nc(C(=O)NS(C)(=O)=O)c(C)s2)cc1 [Compound 583]
Input line: Hi there, can you help? I need to know whether I or II has lower measured EC50. Answer with the label corresponding to your selection.
Output line: I
(I: 251 nM, II: 2000 nM)

====

Target: human androgen receptor (Homo sapiens, UniProt P10275)
Construct: expressed in transfected cells; host or cells: HEK293
Sequence (P10275 1-920): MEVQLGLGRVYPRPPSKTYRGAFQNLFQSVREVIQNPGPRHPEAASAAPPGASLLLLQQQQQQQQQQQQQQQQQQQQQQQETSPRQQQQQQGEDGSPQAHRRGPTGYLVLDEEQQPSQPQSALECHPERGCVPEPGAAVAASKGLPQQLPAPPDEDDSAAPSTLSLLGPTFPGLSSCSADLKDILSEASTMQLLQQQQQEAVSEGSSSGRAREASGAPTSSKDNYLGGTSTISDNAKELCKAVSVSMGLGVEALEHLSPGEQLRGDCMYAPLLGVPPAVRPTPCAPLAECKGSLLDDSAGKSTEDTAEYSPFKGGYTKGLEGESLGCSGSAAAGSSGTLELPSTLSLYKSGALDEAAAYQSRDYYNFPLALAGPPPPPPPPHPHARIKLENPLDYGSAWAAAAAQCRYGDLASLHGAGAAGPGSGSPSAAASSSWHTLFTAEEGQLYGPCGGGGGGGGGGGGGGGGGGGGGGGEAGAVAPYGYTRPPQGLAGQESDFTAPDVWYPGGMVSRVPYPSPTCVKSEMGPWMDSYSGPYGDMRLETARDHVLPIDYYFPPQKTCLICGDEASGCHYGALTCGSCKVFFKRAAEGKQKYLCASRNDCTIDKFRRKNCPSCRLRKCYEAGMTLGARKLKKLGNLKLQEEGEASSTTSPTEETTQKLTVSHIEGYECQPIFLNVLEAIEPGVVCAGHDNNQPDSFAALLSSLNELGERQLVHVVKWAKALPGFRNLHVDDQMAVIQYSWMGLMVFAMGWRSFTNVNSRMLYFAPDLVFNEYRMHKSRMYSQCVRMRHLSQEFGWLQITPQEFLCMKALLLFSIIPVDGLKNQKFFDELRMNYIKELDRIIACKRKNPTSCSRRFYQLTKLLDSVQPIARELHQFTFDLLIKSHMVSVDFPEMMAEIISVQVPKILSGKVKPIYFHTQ
Test: Reporter assay of an androgen receptor responsive sequence (luciferase, transiently transfected HEK293 cells)
Type: cell-based
Conditions: 24 hours incubation, relative to activity of 100 nM DHT, read-out: AR transcriptive activity (pEC50) (converted)
reported.property: EC50 (µM)

Cc1sc(N(CCc2ccc(F)cc2)c2ccc(C#N)cc2)nc1C(=O)NS(C)(=O)=O
1.58

A. COCCCS(=O)(=O)NC(=O)c1nc(N(Cc2ncc(Cl)cc2F)c2ccc(C#N)cc2)sc1C
B. Cc1sc(N(Cc2ccc(F)cc2)[C@H]2C[C@@H]2c2ccccc2)nc1C(=O)NS(C)(=O)=O (racemic)
Input line: Hi there, can you help? I need to know whether A or B has lower measured EC50. Answer with the label corresponding to your selection.
Output line: A

====

Target: androgen receptor (AR-LBD) (Rattus norvegicus, UniProt P15207)
Construct: 5 μL of 2×AR-LBD/Fluoromone AL Red Complex contained in the kit; purchased Invitrogen
Experiment: Evaluation of androgen receptor affinity (PolarScreen Androgen Receptor Competitor Assay Kit, Red; fluorescence polarization)
Details: 22° C. for 5 hours, relative to binding rate of 1 μM DHT, read-out: AR affinity (pEC50) (converted)
reported.property: EC50 (nM)

CCc1oc(N(Cc2ccc(Br)cc2)c2ccc(C#N)cc2)nc1C(=O)NS(C)(=O)=O
50.1

A. COCCCS(=O)(=O)NC(=O)c1nc(N(Cc2ccc(Cl)cc2OC(F)F)c2ccc(C#N)cc2)sc1C
B. COCCCS(=O)(=O)NC(=O)c1nc(N(Cc2ccc(Cl)cn2)c2ccc(C#N)cc2)sc1C
C. Cc1oc(N(CCc2ccc(Cl)cc2)Cc2ccc(C(F)(F)F)nc2)nc1C(=O)NS(C)(=O)=O
D. Cc1sc(N(CCCOc2ccccc2)c2ccc(C#N)cc2)nc1C(=O)NS(C)(=O)=O
E. Cc1sc(N(CCc2ccc(Cl)cc2)Cc2ccc(Cl)cc2)nc1C(=O)NS(C)(=O)=O
Input line: I would appreciate it if you could sort these 5 compounds by EC50, starting from the smallest number. Reply with the labels, ordered as the question asks.
Output line: E, C, A, D, B

1. Cc1sc(N(Cc2cccc(-n3ccnc3)c2)c2ccc(C#N)cc2)nc1C(=O)NS(C)(=O)=O
2. Cc1sc(N(Cc2ccccc2)c2ccc(C#N)cc2)nc1C(=O)NS(=O)(=O)CS(C)(=O)=O
Input line: Recorded EC50 values differ for 1 and 2 ; which one is higher? Answer with the label corresponding to your selection.
Output line: 1
(1: 251 nM, 2: 79.4 nM)

====

Biological target: human androgen receptor (Homo sapiens, UniProt P10275)
Construct: expressed in transfected cells; host or cells: HEK293
Experiment: Reporter assay of an androgen receptor responsive sequence (luciferase, transiently transfected HEK293 cells)
Type: cell-based
Details: 24 hours incubation, relative to activity of 100 nM DHT, read-out: AR transcriptive activity (pEC50) (converted)
reported.property: EC50 (nM)

Completed entries (count: 5):
Cc1sc(N(CCOC2CCCCC2)c2ccc(C#N)cc2)nc1C(=O)NS(C)(=O)=O
2510
Cc1sc(N(CCc2ccc(C#N)cc2)Cc2ccc(Cl)cc2)nc1C(=O)NS(C)(=O)=O
100
CCS(=O)(=O)NC(=O)c1nc(N(Cc2ccc(Cl)cc2)c2ccc(C#N)cc2)oc1C
1000
Cc1sc(N(Cc2ccc(OCC3CCOCC3)cc2)c2ccc(C#N)cc2)nc1C(=O)NS(C)(=O)=O
1260
Cc1sc(N(C[C@@H]2CCCC[C@@H](O)C2)c2ccc(C#N)cc2)nc1C(=O)NS(C)(=O)=O (racemic)
1000

A. Cc1sc(N(CCC2CCCC2)c2ccc(C#N)cc2)nc1C(=O)NS(C)(=O)=O
B. Cc1sc(N(Cc2ccc(C(F)F)cc2)c2ccc(C#N)cc2)nc1C(=O)NS(C)(=O)=O
Input line: Recorded EC50 values differ for A and B ; which one is higher? Answer with the label corresponding to your selection.
Output line: A

====

Target: human androgen receptor (Homo sapiens, UniProt P10275)
Construct: expressed in transfected cells; host or cells: HEK293
Experiment: Reporter assay of an androgen receptor responsive sequence (luciferase, transiently transfected HEK293 cells)
Format: cell-based
Settings: 24 hours incubation, relative to activity of 100 nM DHT, read-out: AR transcriptive activity (pEC50) (converted)
Experimental: Reporter Assay of an Androgen Receptor Responsive Sequence To examine the agonist activity of compounds for androgen, a reporter assay using an androgen receptor responsive sequence was conducted. Using Lipofectamine 2000 (Invitrogen), a plasmid mixture (pGL4-ARE (200 ng/well), pcDNA3-hAR (20 ng/well), pRL-TK (Promega) (150 ng/well)) was transiently transfected into HEK293 cells. The contents of the plasmid (mixture) are as follows: […]
reported.property: EC50 (nM)

Completed entries (count: 3):
Cc1sc(N(Cc2csc(COc3ccccc3)n2)c2ccc(C#N)cc2)nc1C(=O)NS(C)(=O)=O [Compound 465]
794
CS(=O)(=O)NC(=O)c1nc(N(Cc2cccc(OC(F)(F)F)c2)c2ccc(C#N)cc2)sc1Cl [Example 273]
63.1
Cc1sc(N(Cc2ncc(C(F)(F)F)cc2F)c2ccc(C#N)cc2)nc1C(=O)NS(C)(=O)=O [Example 170]
200

A. CS(=O)(=O)NC(=O)c1nc(N(Cc2ccccc2Cl)c2ccc(C#N)cc2)sc1Br [Example 240]
B. Cc1sc(N(Cc2ccccc2)c2ccc(C#N)cc2)nc1C(=O)NS(=O)(=O)Cc1ccccc1 [Compound 374]
C. Cc1sc(N(Cc2ccc(OCc3ccccn3)cc2)c2ccc(C#N)cc2)nc1C(=O)NS(C)(=O)=O [Compound 568]
D. Cc1sc(N(Cc2cc(F)c(F)cc2F)c2ccc(C#N)cc2)nc1C(=O)NS(C)(=O)=O [Compound 110]
Input line: I would appreciate it if you could sort these 4 molecules by EC50, starting from the smallest number. Reply with the labels, ordered as the question asks.
Output line: D, A, B, C
